Reference for the values: ChEMBL document CHEMBL5236595

# target: Sodium channel protein type 5 subunit alpha (Homo sapiens)
# Sequence (Q14524 whole entry): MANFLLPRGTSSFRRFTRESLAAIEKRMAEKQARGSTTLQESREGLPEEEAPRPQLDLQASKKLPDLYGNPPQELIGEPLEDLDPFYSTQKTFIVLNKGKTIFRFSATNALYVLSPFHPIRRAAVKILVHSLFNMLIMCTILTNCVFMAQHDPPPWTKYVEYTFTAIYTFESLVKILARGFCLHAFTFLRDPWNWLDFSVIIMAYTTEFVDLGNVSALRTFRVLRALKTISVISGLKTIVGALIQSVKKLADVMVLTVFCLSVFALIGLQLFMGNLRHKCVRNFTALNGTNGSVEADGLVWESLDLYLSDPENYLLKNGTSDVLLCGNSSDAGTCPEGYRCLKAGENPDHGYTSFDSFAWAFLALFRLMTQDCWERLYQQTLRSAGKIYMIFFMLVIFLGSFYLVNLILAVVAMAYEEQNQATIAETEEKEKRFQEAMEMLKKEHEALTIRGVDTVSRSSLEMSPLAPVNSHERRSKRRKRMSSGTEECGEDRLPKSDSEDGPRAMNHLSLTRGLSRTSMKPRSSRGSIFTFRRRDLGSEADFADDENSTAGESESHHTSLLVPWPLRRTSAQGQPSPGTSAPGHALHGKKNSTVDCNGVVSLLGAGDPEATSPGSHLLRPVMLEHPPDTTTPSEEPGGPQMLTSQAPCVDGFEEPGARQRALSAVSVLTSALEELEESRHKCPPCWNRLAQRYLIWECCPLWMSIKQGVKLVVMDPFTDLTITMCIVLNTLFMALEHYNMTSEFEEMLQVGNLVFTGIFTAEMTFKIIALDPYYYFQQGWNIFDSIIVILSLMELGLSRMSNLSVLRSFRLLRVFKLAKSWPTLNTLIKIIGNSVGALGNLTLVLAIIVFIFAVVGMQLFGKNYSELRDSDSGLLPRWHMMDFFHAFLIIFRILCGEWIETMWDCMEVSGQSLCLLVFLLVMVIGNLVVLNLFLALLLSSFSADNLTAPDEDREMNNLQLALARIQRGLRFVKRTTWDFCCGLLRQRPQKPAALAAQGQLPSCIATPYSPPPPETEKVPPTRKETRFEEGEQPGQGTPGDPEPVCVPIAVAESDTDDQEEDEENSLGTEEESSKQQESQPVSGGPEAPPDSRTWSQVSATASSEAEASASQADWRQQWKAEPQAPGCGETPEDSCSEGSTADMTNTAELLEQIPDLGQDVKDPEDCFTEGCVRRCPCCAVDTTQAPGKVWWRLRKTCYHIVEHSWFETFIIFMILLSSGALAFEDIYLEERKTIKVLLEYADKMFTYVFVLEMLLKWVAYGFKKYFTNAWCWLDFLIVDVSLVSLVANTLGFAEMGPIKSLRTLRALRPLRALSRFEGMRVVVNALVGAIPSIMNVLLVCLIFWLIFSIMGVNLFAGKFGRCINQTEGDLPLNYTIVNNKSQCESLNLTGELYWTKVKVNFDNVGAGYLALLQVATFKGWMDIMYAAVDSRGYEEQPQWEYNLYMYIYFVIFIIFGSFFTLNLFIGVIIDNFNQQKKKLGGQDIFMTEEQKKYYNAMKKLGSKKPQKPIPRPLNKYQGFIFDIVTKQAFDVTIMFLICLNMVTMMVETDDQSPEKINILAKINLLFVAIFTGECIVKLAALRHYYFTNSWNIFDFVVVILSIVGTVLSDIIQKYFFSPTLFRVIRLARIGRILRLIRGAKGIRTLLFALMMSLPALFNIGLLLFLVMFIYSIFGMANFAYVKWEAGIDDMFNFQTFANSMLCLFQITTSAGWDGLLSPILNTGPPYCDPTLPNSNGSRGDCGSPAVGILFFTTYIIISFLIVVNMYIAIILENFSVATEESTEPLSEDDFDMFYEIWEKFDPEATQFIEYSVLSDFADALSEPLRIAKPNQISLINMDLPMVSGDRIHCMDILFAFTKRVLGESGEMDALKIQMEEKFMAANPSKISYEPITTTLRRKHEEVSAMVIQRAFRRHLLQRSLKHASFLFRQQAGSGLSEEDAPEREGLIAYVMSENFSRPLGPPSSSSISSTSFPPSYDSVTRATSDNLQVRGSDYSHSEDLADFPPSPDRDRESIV
# testDescription: Inhibition of Nav1.5 (unknown origin)
pIC50: −log10 of the molar value.
metricName: pIC50

Prompt: Can you share its pIC50? I mean this compound: `C=CC(=O)N1CC2(CC(n3nc(-c4ccc5c(cnn5C)c4)c(-c4c(Cl)c(C)cc5[nH]ncc45)c3C)C2)C1`
Completion: < 5.00

###

# testDescription: Half life in human MIA PaCa-2 cells xenografted mouse at 100 mg/kg, po
# Format: ADME, organism-based
# testContext: in vivo
metricName: half-life (h)
One number for each entry, in h.

Prompt: // half-life lookup, key: `C=CC(=O)N1CC2(CC(n3nc(-c4ccccc4)c(-c4c(Cl)c(C)cc5[nH]ncc45)c3C)C2)C1`
Completion: 2.5
